Biological target: Cytochrome P450 2D6 (Homo sapiens) (UniProt P10635)
Sequence (P10635 whole entry, looked up): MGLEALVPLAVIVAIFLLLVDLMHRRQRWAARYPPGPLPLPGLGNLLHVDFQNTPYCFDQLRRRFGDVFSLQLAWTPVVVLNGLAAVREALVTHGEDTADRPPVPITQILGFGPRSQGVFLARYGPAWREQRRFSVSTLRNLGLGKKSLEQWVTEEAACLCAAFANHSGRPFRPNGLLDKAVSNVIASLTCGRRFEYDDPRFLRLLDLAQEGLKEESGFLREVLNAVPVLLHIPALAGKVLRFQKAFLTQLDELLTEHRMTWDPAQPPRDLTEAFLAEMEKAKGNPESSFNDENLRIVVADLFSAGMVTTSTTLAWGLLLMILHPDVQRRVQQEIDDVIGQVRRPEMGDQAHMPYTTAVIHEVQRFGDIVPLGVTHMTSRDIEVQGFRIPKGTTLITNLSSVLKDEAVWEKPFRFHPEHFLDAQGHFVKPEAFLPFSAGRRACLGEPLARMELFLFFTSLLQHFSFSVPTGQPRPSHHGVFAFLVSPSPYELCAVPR
Test: qHTS Assay for Inhibitors and Substrates of Cytochrome P450 2D6 (AID 891); note: potency is the fitted concentration of half-maximal effect; nearly all actives have a fitted effect of over 60% in size
Settings: recombinant CYP2D6, luciferin-ME EGE luminescence; series mostly up to 57.1 µM
Results filed as inconclusive are left out. Activity calls are given as the source filed them. Calls come from the whole dose curve; as a rule, active = well fitted inhibition curve with a large enough effect; inconclusive = small, poorly fitted or top-dose-only effect; inactive = no such curve, though single readings can be large or run the other way.
ENDPOINT_LABEL: Potency

-- ask Report Potency for CC(C)NC(=O)N1CCCC2(CCN(S(=O)(=O)c3ccccc3)CC2)C1 please.
-- reply 316 nM (active)

-- ask Report Potency for Cc1noc(C)c1C(=O)N1CCC2(CCCN(C(c3ccccc3)c3ccccc3)C2)CC1 please.
-- reply 2000 nM (active)

-- ask Report Potency for COc1ccccc1CN1CCCC2(CCN(S(C)(=O)=O)CC2)C1 please.
-- reply 63.1 nM (active)

-- ask Report Potency for CN(C)Cc1ccccc1-c1cc(NC2CC2)ncn1 please.
-- reply 39.8 nM (active)

-- ask Report Potency for Clc1ccccc1-c1ccc2ncnc(NCc3cccnc3)c2c1 please.
-- reply 6310 nM (active)

-- ask Report Potency for CN1CCN(c2nc(-c3ccc(N(C)C)cc3)nc3ccccc23)CC1 please.
-- reply 3160 nM (active)

-- ask Report Potency for Cn1cccc1C(=O)N1CCC[C@@]2(CCN(Cc3cc(C(F)(F)F)cc(C(F)(F)F)c3)C2)C1 please.
-- reply 3980 nM (active)

-- ask Report Potency for FC(F)(F)c1ccccc1-c1ccc2ncnc(NCc3cccnc3)c2c1 please.
-- reply 1580 nM (active)

-- ask Report Potency for COc1ccccc1CN1CCC2(CC1)CCN(C(C)=O)CC2 please.
-- reply 5010 nM (active)

---

Target: Dual specificity protein kinase CLK4 (Homo sapiens)
Test: qHTS Assay for Inhibitors of CDC-like Kinase 4 (ADP-FP Assay) (AID 1795); note: nearly all actives have a fitted effect of over 60% in size
Details: Transcreener ADP fluorescence polarization; series mostly up to 50 µM
Inconclusive results are not listed. Calls of active or inactive are those of the source. Calls come from the whole dose curve; as a rule, active = well fitted inhibition curve with a large enough effect; inconclusive = small, poorly fitted or top-dose-only effect; inactive = flat fitted curve, though single readings scatter.
Write down the outcome that applies. Available outcomes: True for active, False for inactive

-- ask Record request — test call for COCCNc1ncnc2ccc(-c3ccccc3C)cc12
-- reply True

-- ask Record request — test call for CCNc1ncc2nc(C)c(=O)n(-c3ccc(OC)cc3)c2n1
-- reply False

-- ask Record request — test call for FC(F)(F)c1ccccc1-c1nc(NC2CCNCC2)c2ccccc2n1
-- reply False

-- ask Record request — test call for COc1ccc(-n2c(=O)c(-c3cc(F)cc(F)c3)nc3cnc(N(C)C)nc32)cc1
-- reply False

-- ask Record request — test call for CN(C)c1ncc2ncc(=O)n(C3CC3)c2n1
-- reply False

-- ask Record request — test call for CN1CCN(c2cc(-c3ccoc3)ncn2)CC1
-- reply False

-- ask Record request — test call for COc1ccc(-c2nc3cnc(N4CCN(C)CC4)nc3n(Cc3cccc(OC)c3)c2=O)cc1
-- reply False

-- ask Record request — test call for COc1cccc(Cn2c(=O)c(C)nc3cnc(Nc4ccccc4)nc32)c1
-- reply False

-- ask Record request — test call for Cn1cc(-c2nc3cncnc3n(Cc3ccc(F)cc3)c2=O)c2ccccc21
-- reply False

-- ask Record request — test call for CCNc1ncc2nc(-c3ccc(Cl)cc3)c(=O)n(CCC#N)c2n1
-- reply False

-- ask Record request — test call for Cc1cnc(CNc2ncncc2-c2cccnc2)cn1
-- reply False

-- ask Record request — test call for Cc1noc(C)c1-c1cc(N(C)Cc2ccco2)ncn1
-- reply False

-- ask Record request — test call for COc1cccc(-c2cncnc2Nc2ccc(F)cc2)c1
-- reply False

-- ask Record request — test call for Cc1nc2cnc(N3CCNCC3)nc2n(Cc2cccs2)c1=O
-- reply False

---

Molecular target: Cytochrome P450 2C9 (Homo sapiens) (UniProt P11712)
Sequence (P11712 whole entry, looked up): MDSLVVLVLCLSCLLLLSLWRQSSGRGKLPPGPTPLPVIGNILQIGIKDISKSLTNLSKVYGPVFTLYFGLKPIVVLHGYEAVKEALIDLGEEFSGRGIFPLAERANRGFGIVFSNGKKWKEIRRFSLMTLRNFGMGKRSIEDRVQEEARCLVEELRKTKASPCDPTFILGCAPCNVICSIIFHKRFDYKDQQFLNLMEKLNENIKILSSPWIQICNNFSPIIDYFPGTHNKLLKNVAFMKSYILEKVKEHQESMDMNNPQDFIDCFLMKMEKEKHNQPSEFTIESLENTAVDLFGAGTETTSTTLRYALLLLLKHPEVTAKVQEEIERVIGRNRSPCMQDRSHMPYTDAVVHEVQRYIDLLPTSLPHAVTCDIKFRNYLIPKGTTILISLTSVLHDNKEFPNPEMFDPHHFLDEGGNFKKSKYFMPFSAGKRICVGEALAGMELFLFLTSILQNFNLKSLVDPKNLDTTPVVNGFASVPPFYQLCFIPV
Test: qHTS Assay for Inhibitors and Substrates of Cytochrome P450 2C9 (AID 883); note: nearly all actives have a fitted effect of over 60% in size
Details: recombinant CYP2C9, luciferin-H luminescence, 60 min; series mostly up to 57.1 µM
Inconclusive results are not listed. Activity calls are given as the source filed them. Calls follow the shape of the dose curve; as a rule, active = well fitted inhibition curve with a large enough effect; inconclusive = small, poorly fitted or top-dose-only effect; inactive = no such curve, though single readings can be large or run the other way.
Write down the outcome that applies. Available outcomes: active, inactive

-- ask Record request — test call for CN1CCN(c2ncc3nc(-c4cc(F)cc(F)c4)c(=O)n(C)c3n2)CC1
-- reply inactive

-- ask Record request — test call for O=C(Nc1cccc(F)c1)N1CCCC2(CCN(C(=O)c3ccncc3)CC2)C1
-- reply active

-- ask Record request — test call for COCCn1c(=O)c(-c2cccc(C#N)c2)nc2cnc(Oc3ccccc3)nc21
-- reply active

-- ask Record request — test call for COCCn1c(=O)c(C)nc2cnc(N3CCN(C)CC3)nc21
-- reply inactive

-- ask Record request — test call for CS(=O)(=O)N1CCC2(CC1)CN(c1cccc(-c3ccccc3)c1)C2
-- reply inactive

-- ask Record request — test call for N=C1Sc2ccccc2C2=NCCCN12
-- reply active

-- ask Record request — test call for CCNc1ncc2nc(-c3cn(C)c4ccccc34)c(=O)n(-c3ccccc3)c2n1
-- reply inactive

-- ask Record request — test call for COc1ccc(-n2c(=O)c(-c3cccs3)nc3cnc(N(C)C)nc32)cc1
-- reply inactive

-- ask Record request — test call for COC(=O)c1c(-c2cc(OC)c(OC)c(OC)c2)c2ccc(OCc3ccccn3)cc2c(=O)n1-c1ccc(N)cc1
-- reply active

-- ask Record request — test call for COc1ccc(CNc2ncnc3ccc(-c4ccccc4OC)cc23)c(OC)c1
-- reply active

-- ask Record request — test call for CC(C)NC(=O)N1CC[C@@]2(CCCN(C(=O)Oc3ccccc3)C2)C1
-- reply inactive

-- ask Record request — test call for Cc1noc(C)c1C(=O)N1CCC2(CCCN(C(=O)NC(C)C)C2)CC1
-- reply inactive

-- ask Record request — test call for O=c1c(-c2ccc(Cl)cc2)nc2cnc(N3CCOCC3)nc2n1-c1ccccc1
-- reply inactive

-- ask Record request — test call for COc1ccc(-c2nc3cnc(N4CCNCC4)nc3n(Cc3ccc(F)cc3)c2=O)cc1
-- reply inactive

---

Field: max response. Provide a value for each of the molecules that follow.
Assay: qHTS Assay for Lipid Storage Modulators (AID 1519)
Settings: Drosophila S3 cells, BODIPY lipid droplet/cell ratio, laser cytometry; measured here: lipid channel max response; cells loaded with oleic acid
Protocol: NIH Molecular Libraries Probe Production Centers Network [MLPCN] NIH Chemical Genomics Center [NCGC] Assay Submitter (PI): Beller, Mathias; Max-Planck-Institut fur Biophysikalische Chemie […] We dispensed 4 uL of cells at 1.25 x 10^6 cells/mL into LoBase Aurora COC 1,536-well plates (black walled, clear bottom) with a bottle-valve solenoid-based dispenser (Aurora) to obtain 5,000 cells/well. […] The ratio of the total intensity in PMT channel 1 over total intensity of channel 3 was also calculated. […]
Results filed as inconclusive are left out.
// note: answer is a bare numeric in %

-- ask Report max response for Cc1cccc(CNc2nc(-c3ccc4c(c3)OCO4)nc3ccccc23)c1 please.
-- reply -24.8

-- ask Report max response for COc1ccc(NC(=O)N2CCCC3(CCN(S(C)(=O)=O)CC3)C2)cc1 please.
-- reply -4.34

-- ask Report max response for COc1ccc(-c2nc3cnc(N4CCOCC4)nc3n(-c3ccccc3)c2=O)cc1 please.
-- reply 21.4

-- ask Report max response for CC(C)NC(=O)N1CC2(CCN(C(=O)c3ccncc3)CC2)C1 please.
-- reply 15.6

-- ask Report max response for COc1ccc(Oc2ncc3nc(-c4ccc(OC)cc4)c(=O)n(C)c3n2)cc1 please.
-- reply -2.18

-- ask Report max response for Cc1noc(C)c1C(=O)N1CCC2(CCCN(C(=O)Nc3cccc(F)c3)C2)CC1 please.
-- reply 19.9

-- ask Report max response for Cc1noc(C)c1-c1nccc(-n2ccnc2)n1 please.
-- reply 20.6

-- ask Report max response for CC(C)NC(=O)N1CC2(CCN(C(=O)c3ccco3)CC2)C1 please.
-- reply -15.1

-- ask Report max response for Cc1noc(C)c1-c1cncnc1N(C)Cc1ccco1 please.
-- reply 13.2

-- ask Report max response for COc1ccccc1-c1nccc(-n2ccnc2)n1 please.
-- reply 27.4

-- ask Report max response for Cn1cccc1C(=O)N1CCC[C@@]2(CCN(c3ccccc3)C2)C1 please.
-- reply 17.2

-- ask Report max response for CC(=O)NCCNc1ncnc2ccc(-c3c(C)noc3C)cc12 please.
-- reply 29.5

-- ask Report max response for Cc1cnc(CNc2ncnc3ccc(-c4ccoc4)cc23)cn1 please.
-- reply 16.4

-- ask Report max response for O=C(c1ccncc1)N1CCC2(CC1)CCN(c1cccc(-c3ccccc3)c1)CC2 please.
-- reply 21.6

-- ask Report max response for COc1c2c(nc3ccccc13)OC(C(C)(O)CO)C2 (configuration not stated) please.
-- reply -12.2

-- ask Report max response for Cn1cccc1C(=O)N1CCC2(CC1)CCN(c1ccc(-c3ccccc3)cc1)CC2 please.
-- reply -7.47

-- ask Report max response for COc1cccc(-c2ccc3ncnc(NCc4cccs4)c3c2)c1 please.
-- reply -23.5

-- ask Report max response for CS(=O)(=O)N1CCC2(CC1)CN(c1ccncc1)C2 please.
-- reply -21.8

-- ask Report max response for CC(=O)O[C@H]1C[C@@H]2CCC3C(CC[C@@]4(C)[C@H]3C[C@H]([N+]3(C)CCCCC3)[C@@H]4OC(C)=O)[C@@]2(C)C[C@@H]1[N+]1(C)CCCCC1 (some centres not stated) please.
-- reply -31.3

-- ask Report max response for Clc1ccccc1-c1nccc(NCc2cccs2)n1 please.
-- reply 18.5

-- ask Report max response for CN(C)c1ccc(-c2ccc3ncnc(N4CCNCC4)c3c2)cc1 please.
-- reply 4.85

-- ask Report max response for Cc1nc2cnc(N(C)C)nc2n(C[C@H]2CCCO2)c1=O please.
-- reply 13.4

# credit: PubChem BioAssay (NCATS)
